assay: PhoP-dependent GFP reporter repression – Salmonella Typhimurium, primary screen (AID 1863);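 further: 0% = low Mg2+ inducing control and 100% = high Mg2+ repressing control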; conditions: S. Typhimurium PhoP-regulated promoter GFP reporter, 4 h; at 50 µM; hits give high values
The whole screen tested about 300,000 compounds, of which about 480 (0.16%) were called active. Not all results are given here. Potency and affinity values are given separately.
inhibition by entry:
Please state the figure in %; there is no need to write the unit.

molecule=Clc1ccc(C[n+]2cc(-c3ccccc3)n3c2CCCCC3)c(Cl)c1 unit_descriptor=% value_measured=8.08
molecule=Cc1ccc(C[n+]2cc(-c3ccc(Cl)cc3)n3c2CCC3)cc1 unit_descriptor=% value_measured=31.5
molecule=CSCC[C@H](NC(=O)Nc1ccc(Oc2ccccc2)cc1)C(=O)O unit_descriptor=% value_measured=0.47

Name the recorded inhibition of the molecule listed here: N=c1n(CC(=O)c2ccc([N+](=O)[O-])cc2)c2ccccc2n1Cc1ccc(Cl)cc1 25.9

Name the recorded inhibition of the molecule listed here: Cc1cc[n+](-c2[nH]c(=O)sc2/C=N/N=C(\[O-])CCn2c3ccccc3c3ccccc32)cc1 1.47

###

experiment: PhoP-dependent GFP reporter repression – Salmonella Typhimurium, primary screen (AID 1863);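 further: 0% = low Mg2+ inducing control and 100% = high Mg2+ repressing control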; details: S. Typhimurium PhoP-regulated promoter GFP reporter, 4 h; at 50 µM; hits give high values
About 480 (0.16%) of roughly 300,000 compounds were called active. The list is a sample of the results. Measured potencies and affinities stand elsewhere.
test.readout: inhibition (%)
Please state the figure in %; there is no need to write the unit.

Name the recorded inhibition of the compound listed here: Cc1ccc(/C=C/C(=O)c2ccccc(=O)c2O)c(C)c1 7.66

Name the recorded inhibition of the compound listed here: COc1ccc(NC(=O)C/C(C)=N/NC(=O)c2cccs2)c([N+](=O)[O-])c1 6.98

Name the recorded inhibition of the compound listed here: O=C(/C=C/c1ccccc1Cl)c1ccc(O)cc1 2.4

Name the recorded inhibition of the compound listed here: COc1ccc(C)cc1-n1c(-c2ccncc2)n[nH]c1=S -9.19

Name the recorded inhibition of the compound listed here: O=C(N/N=C\c1cccc(Cl)c1)c1ccc(Cn2cc(Br)c([N+](=O)[O-])n2)o1 -28.5

Name the recorded inhibition of the compound listed here: Cc1cccc(CN2CCN(Cc3cccc(-n4cccn4)c3)CC2CCO)n1 (stereo unspecified) -2.39

Name the recorded inhibition of the compound listed here: O=C(/C=C/c1ccc(O)c(O)c1)c1ccccc1O -12

Name the recorded inhibition of the compound listed here: Cc1cccc(/C=C/C(=O)c2cc(Br)ccc(=O)c2O)c1 23.4

Name the recorded inhibition of the compound listed here: CNC(=O)c1cn(-c2ccc(Cl)cc2)c(=O)c2ccccc12 -7.59

Name the recorded inhibition of the compound listed here: CN1CCc2c(sc3nc(NCCO)n(-c4cccc(Cl)c4)c(=O)c23)C1 -3.53

Name the recorded inhibition of the compound listed here: COC(=O)n1c(=O)oc2cc(S(=O)(=O)N3CCOCC3)ccc21 7.81

###

assay: PhoP-dependent GFP reporter repression – Salmonella Typhimurium, primary screen (AID 1863);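 further: 0% = low Mg2+ inducing control and 100% = high Mg2+ repressing control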; conditions: S. Typhimurium PhoP-regulated promoter GFP reporter, 4 h; at 50 µM; hits give high values
The campaign covered roughly 300,000 compounds. About 480 (0.16%) were called active. A selection follows. Measured potencies and affinities stand elsewhere.
inhibition by entry:
Please state the figure in %; there is no need to write the unit.

# example entries with known answers
compound=CNc1cc(CSC)nc(SCc2ccc(Cl)c(Cl)c2)n1 value_measured=-2.03
compound=CCOC(=O)N1CCN(Cc2cc(Cl)c3cccnc3c2O)CC1 value_measured=-0.11
compound="Cc1ccc(CN2C(=O)CCC2C(=O)NCCN2CCN(c3cccc(Cl)c3)CC2)cc1 (stereo not drawn)" value_measured=-4.51
compound=Cc1ccc(-n2ccnc(SCC(=O)NC3CCCC3)c2=O)cc1Cl value_measured=-4.24
compound=COc1ccc(CNC(=O)COC(=O)CCOc2ccc(C)cc2)cc1OC value_measured=-1.68

Name the recorded inhibition of the compound listed here: OCc1cn(-c2ccccc2)nc1-c1ccc(Br)cc1 -1.5

Name the recorded inhibition of the compound listed here: Cc1cccc(N2CCN(C(=O)c3ccnn3C)CC2)c1C 0.84

Name the recorded inhibition of the compound listed here: Cn1cc(C(=O)NCc2cccnc2)c(=O)c2cc(S(=O)(=O)N3CCCCCC3)ccc21 1.24

Name the recorded inhibition of the compound listed here: O=c1c2ccccc2nc2c3ccccc3c(NCCN3CCOCC3)nn12 -8.49

Name the recorded inhibition of the compound listed here: COc1ccc(/C=N/NS(=O)(=O)c2ccc(C)cc2)cc1OC(=O)c1ccccc1 -3.56

Name the recorded inhibition of the compound listed here: Cc1c(NC(=O)/C(C#N)=C/c2ccccc2)c(=O)n(-c2ccccc2)n1C 0.82

Name the recorded inhibition of the compound listed here: CC[C@H]1OC(=O)[C@H](C)[C@@H](O[C@H]2C[C@@](C)(OC)[C@@H](O)[C@H](C)O2)[C@H](C)[C@@H](O[C@@H]2O[C@H](C)C[C@H](N(C)C)[C@H]2O)[C@](C)(O)C[C@@H](C)C(=NOCOCCOC)[C@H](C)[C@@H](O)[C@]1(C)O 2.91

Name the recorded inhibition of the compound listed here: COC(=O)c1cc(NC(=O)CC2SCCNC2=O)cc(C(=O)OC)c1 (stereo not drawn) -10.7

Name the recorded inhibition of the compound listed here: Cc1ccc(-c2nn(-c3ccccc3)cc2CSC(=N)N)cc1 2.16

Name the recorded inhibition of the compound listed here: OCc1cn(-c2ccccc2)nc1-c1ccc(-c2nn(-c3ccccc3)cc2CO)cc1 14.7

Name the recorded inhibition of the compound listed here: Cc1ccccc1-c1noc(CCC(=O)NCC2CCCO2)n1 (stereo not drawn) 6.26

Name the recorded inhibition of the compound listed here: CC(=O)NC12CC3CC(C1)CC(C(=O)Nc1nccs1)(C3)C2 -6.86

Name the recorded inhibition of the compound listed here: CCNC1=C(Cl)C(=O)c2ccccc2C1=O 22.7

Name the recorded inhibition of the compound listed here: CC1CCN(CC(O)CN2c3ccccc3Sc3ccccc32)CC1 (stereo not drawn) 11.3

Name the recorded inhibition of the compound listed here: C=CCNC(=O)CSc1nnc(-c2ccccn2)n1Cc1ccccc1 7.3

Name the recorded inhibition of the compound listed here: CN1CCCC(CN2c3ccccc3Sc3ccccc32)C1 (stereo not drawn) 5.69

Name the recorded inhibition of the compound listed here: C=CCOC(=O)C1=C[C@@H](c2ccc(Br)cc2)[C@H](CCCO)[C@@H](OCC)O1 -3.82

Name the recorded inhibition of the compound listed here: COC(=O)c1cc(OC)c(OC)cc1NC(=S)N1CCN(Cc2ccccc2)CC1 -2.33
